Assay: differential killing of epithelial or mesenchymal cells, primary screen, imaging, PC-3E GFP, TEM4-18 mCherry, co-culture (AID 1345086);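 also: normalised mesenchymal count divided by normalised epithelial count so high means epithelial killing; cells exposed to compound for 72 h before imaging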
Details: imaging cell counts, at 1 µM, actives lie on both sides, counts scaled to control wells, 1 = unselective
The source made the active and inactive calls.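 The calls were made as follows: active = compounds killing one labelled cell type while sparing the other, by normalised counts and ratio limits, not self-fluorescent; inactive = the rest.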 Square brackets hold non-standard residues; d marks the D form. Peptide text beside a SMILES is read from it. Orn = NCCC[CH](N)C(=O)O
// classify into label 1 for active, label 0 for inactive

Worked examples follow.
Challenge: Record request — test call for CC(C)CCCC(C)[C@H]1CCC2C3CC=C4C[C@@H](O)CC[C@]4(C)C3CC[C@@]21C (some centres undefined)
Response given: label 0

Challenge: Record request — test call for Cc1cc(O)c(C(=O)c2c(O)cccc2O)c(C(=O)O)c1
Response given: label 0

Challenge: Record request — test call for COc1cc2c(cc1OC)C1C(=O)c3c(O)cc4c(c3OC1CO2)C=CC(C)(C)O4 (centres undefined)
Response given: label 0

Challenge: Record request — test call for COc1ccc(-c2cc(=O)c3c(O)cc(O[C@@H]4O[C@H](CO[C@H]5O[C@H](C)[C@@H](O)[C@H](O)[C@@H]5O)[C@@H](O)[C@H](O)[C@H]4O)cc3o2)cc1O
Response given: label 0

Challenge: Record request — test call for CC[C@@H](C(=O)[C@@H](C)[C@@H](O)[C@H](C)[C@@H]1O[C@@H]([C@@H](CC)C(=O)O)CC[C@@H]1C)[C@H]1OC2(C=C[C@@H](O)[C@]3(CC[C@@](C)([C@H]4CC[C@](O)(CC)[C@H](C)O4)O3)O2)[C@H](C)C[C@@H]1C (some centres undefined)
Response given: label 1

Challenge: Record request — test call for Cc1oc(=O)oc1CN1CCN(c2cc3c(cc2F)c(=O)c(C(=O)O)c2n3C(C)C2)CC1 (centres undefined)
Response given: label 0

Challenge: Record request — test call for O=C1C=CC(=O)c2c(O)c(Cl)c(Cl)c(O)c21
Response given: label 0

Challenge: Record request — test call for Nc1nc(Cl)nc2c1ncn2C1O[C@H](CO)[C@@H](O)[C@@H]1F (some centres undefined)
Response given: label 0

Challenge: Record request — test call for CC(C)CC1C(=O)N2CCC[C@H]2C2(O)O[C@](NC(=O)C3C=C4c5cccc6[nH]c(Br)c(c56)C[C@H]4N(C)C3)(C(C)C)C(=O)N12 (some centres undefined)
Response given: label 0

Challenge: Record request — test call for CC(C)[C@@H]1CCC(CO)=C[C@@H]1/C=C(\CO)C(=O)O
Response given: label 0

More entries:
Challenge: Record request — test call for C[C@H](CCC(=O)O)[C@H]1CCC2C3C(CC[C@@]21C)[C@@]1(C)CC[C@@H](O)C[C@H]1C[C@@H]3O (some centres undefined)
Response given: label 0

Challenge: Record request — test call for CC(C)Nc1ncccn1
Response given: label 0

Challenge: Record request — test call for C=CCOC(=O)N1C(=O)O[C@H]2C(OC(C)=O)C(COC(C)=O)O[C@H](Sc3ccc(C)cc3)[C@H]21 (some centres undefined)
Response given: label 0

Challenge: Record request — test call for CC(C)CC1NC(=O)C(CCCN)NC(=O)C(C(C)C)NC(=O)C2CCCN2C(=O)C(Cc2ccccc2)NC(=O)C(CC(C)C)NC(=O)C(CCCN)NC(=O)C(C(C)C)NC(=O)C2CCCN2C(=O)C(Cc2ccccc2)NC1=O (centres undefined) (cyclo(FPV[Orn]LFPV[Orn]L); configuration not given here)
Response given: label 0

Challenge: Record request — test call for OC[C@H]1O[C@@H](O[C@H]2[C@H](O)[C@@H](O)[C@@H](O)O[C@@H]2CO)[C@H](O)[C@@H](O)[C@@H]1O
Response given: label 0

Challenge: Record request — test call for Clc1ccc(Br)cc1OCC1CCCNC1 (centres undefined)
Response given: label 0

Reference for the values: PubChem BioAssay
